# System: Mitogen-activated protein kinase 1 (Homo sapiens)
# Sequence (P28482 whole entry): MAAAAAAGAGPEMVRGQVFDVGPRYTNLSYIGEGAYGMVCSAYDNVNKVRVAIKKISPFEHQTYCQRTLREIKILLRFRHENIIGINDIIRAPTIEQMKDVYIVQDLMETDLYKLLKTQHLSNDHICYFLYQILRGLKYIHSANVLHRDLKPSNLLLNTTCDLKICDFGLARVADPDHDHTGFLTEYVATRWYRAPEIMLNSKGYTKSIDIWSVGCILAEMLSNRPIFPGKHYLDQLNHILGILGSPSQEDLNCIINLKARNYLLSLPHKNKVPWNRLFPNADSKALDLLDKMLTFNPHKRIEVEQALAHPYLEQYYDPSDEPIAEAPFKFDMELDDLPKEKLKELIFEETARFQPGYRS
# Assay comment: DRUGMATRIX: Protein Serine/Threonine Kinase, ERK2 enzyme inhibition (substrate: Myelin Basic Protein)
# Design: species or system Escherichia coli
# Setup conditions: Not Active = under 50% inhibition at 10 µM
Metric name: IC50

// below: answered compounds
Compound	System	IC50
Cc1ccc(S(=O)(=O)NC(=O)NN2CCCCCC2)cc1 [TOLAZAMIDE]	Mitogen-activated protein kinase 1 (Homo sapiens)	Not Active
C#C[C@]1(O)CC[C@H]2[C@@H]3[C@H](C)CC4=C(CCC(=O)C4)[C@H]3CC[C@@]21C	Mitogen-activated protein kinase 1 (Homo sapiens)	Not Active
NC(=O)CN1CCCC1=O	Mitogen-activated protein kinase 1 (Homo sapiens)	Not Active
COC(=O)C[C@](O)(CCC(C)(C)O)C(=O)O[C@@H]1C(OC)=C[C@]23CCCN2CCc2cc4c(cc2[C@H]13)OCO4	Mitogen-activated protein kinase 1 (Homo sapiens)	Not Active

Please give IC50 for each item listed below.
1. CO[C@@H]1[C@@H](OC)[C@H](C)[C@@](O)(CC(=O)O)O[C@H]1[C@H](C)[C@H]1O[C@@]2(CC[C@@](C)([C@H]3CC[C@@](C)([C@@H]4O[C@@H]([C@H]5O[C@](C)(O)[C@H](C)C[C@@H]5C)C[C@@H]4O[C@@H]4C[C@H](OC)[C@@H](OC)[C@H](C)O4)O3)O2)C[C@H](O)[C@H]1C.N
2. CC#C[C@]1(O)CC[C@H]2[C@@H]3CCC4=CC(=O)CCC4=C3[C@@H](c3ccc(N(C)C)cc3)C[C@@]21C

1. Not Active
2. Not Active

The reported numbers originate from ChEMBL document CHEMBL1909046.
